- ASSAY INFO: NCI Yeast Anticancer Drug Screen. Data for the cln2 rad14 strain (AID 165)
- EXPERIMENTAL CONDITIONS: S. cerevisiae cln2 rad14 strain, at 50.0 µM
This is part of a sample that, as a whole, favours compounds with a hit. Of some 79,000 tested, about 15% had one in any assay. Active and inactive are the calls of the source. Cut-off read from the data, not from the text of the source: active = growth inhibition above about 70%; inactive = the rest.
Form entry, call: pick from active, inactive

1) COC(=O)N1C2C=CC(=O)C(C=C2)N1C(=O)OC (centres undefined) ... inactive
2) CCN(CC)Cc1cc(Nc2c3ccccc3nc3c4ccccc4n(C)c23)ccc1O ... inactive
3) Cc1cc(Oc2nc(Cl)nc(C(Cl)(Cl)Cl)c2Cl)cc(C)c1N(C)C (tested in a mixture with another compound) ... active
4) Cc1nn(C(=O)c2ccncc2)c(C)c1N=Nc1ccccc1[N+](=O)[O-] ... inactive
5) Cc1nc(N)sc1N=Nc1ccc(Cl)cc1 ... inactive
6) Nc1ccc(Cl)c2ccccc12 ... inactive
7) COc1cccc2c1C(=O)c1c(O)c3c(c(O)c1C2=O)C[C@@](O)(/C(C)=N/NC(=O)c1ccc(Cl)c(Cl)c1)C[C@@H]3OC1CC(N)C(O)C(C)O1 (some centres undefined) ... active
8) CC(C)(C)c1cc2c3c(c1)Oc1cc(C(C)(C)C)cc4c1C3(O)c1c(cc(C(C)(C)C)cc1O4)O2 ... active

Switching to the query record.
# input Any idea what this test logged for `O=C(O)CSCc1cc2c3ccccc3sc2c2ccccc12` ?
# output active

* * *

- ASSAY INFO: NCI Yeast Anticancer Drug Screen. Data for the mlh1 rad18 strain (AID 175)
- EXPERIMENTAL CONDITIONS: S. cerevisiae mlh1 rad18 strain growth inhibition; at 5.0 µM (retest, dose inferred, filed as 0.5)
Compounds without any hit were thinned out: in the full panel of roughly 79,000, 15% have a hit. The source made the active and inactive calls. Cut-off read from the data, not from the text of the source: active = growth inhibition above about 70%; inactive = the rest.
Form entry, call: pick from active, inactive

1) NN=C(CC(O)(C(F)(F)Cl)C(F)(F)Cl)CC(O)(C(F)(F)Cl)C(F)(F)Cl ... inactive

# input Any idea what this test logged for `O=c1oc(-c2ccccc2Br)ns1` ?
# output inactive

# input Any idea what this test logged for `CCOC(=O)c1c(Cl)nnc(-c2ccccc2)c1-c1ccccc1` ?
# output inactive

# input Any idea what this test logged for `CSc1nc(COC(=O)NC(C)C)c(COC(=O)NC(C)C)n1-c1ccccc1` ?
# output inactive

# input Any idea what this test logged for Oc1ccc(C2SC(c3ccc(O)cc3)SC(c3ccc(O)cc3)S2)cc1 (stereo not drawn) ?
# output inactive

# input Any idea what this test logged for `C=CCNC(=O)c1ccccc1C(=O)O` ?
# output inactive

# input Any idea what this test logged for `S=C(N/N=C/c1ccccn1)N1CCCCC1` ?
# output active

# input Any idea what this test logged for `CC(C)OC(=O)CCCCCC1CCCCC1` ?
# output inactive

# input Any idea what this test logged for `CCCCCC/C=C\C=O` ?
# output inactive

# input Any idea what this test logged for `O=C1/C(=C\c2ccc(Cl)cc2Cl)Sc2scc(-c3ccc(O)c(O)c3)[n+]21` ?
# output inactive

# input Any idea what this test logged for `O=C(CCc1c[nH]c2ccccc12)c1ccccc1O` ?
# output inactive

# input Any idea what this test logged for CN1C=Cc2ccccc2C1C(C1c2ccccc2C=CN1C)[N+](=O)[O-] (stereo not drawn) ?
# output inactive

# input Any idea what this test logged for CN(C)C1=NC2=S(SC(Nc3ccccc3)=N2)S1 (stereo not drawn) ?
# output inactive

# input Any idea what this test logged for `N=C(N)c1ccc(OCCCCOc2ccc(N)cc2Cl)cc1` ?
# output inactive

# input Any idea what this test logged for `Cc1cccc2c(CC(=O)O)c[nH]c12` ?
# output active

# input Any idea what this test logged for COc1cccc(C2CC(C)(O)Oc3cc4c(cc32)OCO4)c1 (stereo not drawn) ?
# output inactive

# input Any idea what this test logged for CC1=CC(O)(c2ccc(-c3ccccc3Cl)cc2)OC1=O (stereo not drawn) ?
# output inactive

# input Any idea what this test logged for `O=C1CCS(=O)(=O)c2ccccc21` ?
# output inactive

# input Any idea what this test logged for `Nc1ccc2nc(N)sc2c1` ?
# output inactive
